EXPERIMENTAL_SYSTEM: FTH ferritin (Homo sapiens, UniProt P02794)
Construct: made in house; host or cells: Escherichia coli BL21 (DE3), plasmid pET20-FTH
Sequence (P02794 whole entry): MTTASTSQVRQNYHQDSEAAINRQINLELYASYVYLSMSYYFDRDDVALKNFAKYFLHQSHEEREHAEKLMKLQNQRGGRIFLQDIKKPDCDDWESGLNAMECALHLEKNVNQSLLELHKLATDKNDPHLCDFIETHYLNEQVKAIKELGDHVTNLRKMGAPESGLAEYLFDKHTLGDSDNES
EXPERIMENT: one-step process incorporation of small molecule agents into FTH ferritin
Format: physicochemical
REPORTED_CONDITIONS: pH 10, 40° C., 60 min
Parameter: Incorporation efficiency (wt %). Scope: all listed entries.
A number alone suffices; assume wt %.

As a guide, the following entries are already answered.
{"COMPOUND": "CC(C)(C)NCC(O)c1cc(O)cc(O)c1 (centres unmarked)", "Incorporation efficiency (wt %)": 1.2}
{"COMPOUND": "Nc1cc(N2CCCCC2)nc(N)[n+]1[O-]", "Incorporation efficiency (wt %)": 0.2}
{"COMPOUND": "CN(C)C(=N)NC(=N)N", "Incorporation efficiency (wt %)": 0.0}
{"COMPOUND": "Cc1ncc(C[n+]2csc(CCO)c2C)c(N)n1", "Incorporation efficiency (wt %)": 0.9}

# query: Incorporation efficiency (wt %) | item NC(=O)c1cccnc1 [Nicotinamide] | system: FTH ferritin (Homo sapiens, UniProt P02794)
0.2

* * *

EXPERIMENT: pKa of the organic compound
Type: physicochemical
REPORTED_CONDITIONS: average of plural pKa values
Counter-ions that a name gives are not always drawn.
Parameter: pKa. Scope: all listed entries.
// return a plain number; no unit text

{"COMPOUND": "CC(C)(C)NCC(O)c1cc(O)cc(O)c1 (centres unmarked)", "pKa": 9.31}

Name the recorded pKa for COc1cccc2c1C(=O)c1c(O)c3c(c(O)c1C2=O)C[C@@](O)(C(=O)CO)C[C@@H]3OC1CC(N)C(O)C(C)O1 (some centres unmarked) [DOX, Doxorubicin hydrochloride] .
8.42

* * *

EXPERIMENTAL_SYSTEM: FTH ferritin (Homo sapiens)
Construct: made in house; host or cells: Escherichia coli BL21 (DE3), plasmid pET20-FTH
EXPERIMENT: one-step process incorporation of small molecule agents into FTH ferritin
Type: physicochemical
REPORTED_CONDITIONS: pH 4, 40° C., 60 min
READOUT_NAME: Incorporation efficiency (wt %)
A number alone suffices; assume wt %.

Name the recorded Incorporation efficiency (wt %) for CC(C)(C)NCC(O)c1cc(O)cc(O)c1 (centres unmarked) .
0.0

Name the recorded Incorporation efficiency (wt %) for CN(C)C(=N)NC(=N)N .
0.0

Name the recorded Incorporation efficiency (wt %) for Cc1ncc(C[n+]2csc(CCO)c2C)c(N)n1 .
0.8

Name the recorded Incorporation efficiency (wt %) for NC(=O)c1cccnc1 [Nicotinamide] .
0.4

Name the recorded Incorporation efficiency (wt %) for Nc1cc(N2CCCCC2)nc(N)[n+]1[O-] .
0.3

* * *

EXPERIMENTAL_SYSTEM: FTH ferritin (Homo sapiens, UniProt P02794)
Construct: made in house; host or cells: Escherichia coli BL21 (DE3), plasmid pET20-FTH
EXPERIMENT: one-step process incorporation of small molecule agents into FTH ferritin
Type: physicochemical
REPORTED_CONDITIONS: pH of buffer giving the largest amount of incorporation within ferritin
Method: All of the reactions were performed in 0.1 mL volume. […] The absorbances were measured using spectrophotometer (DU-800, Beckman Coulter Inc.) for these solutions, and the concentration of contained protein was determined using the protein assay CBB solution (Nacalai Tesque, Inc.) as well as bovine albumin as a standard. Absorbances at 280 nm and 480 nm were measured for Rhodamine B and Congo Red. […]
Where a name gives a salt, the structure may show the parent alone.
Parameter: Optimal pH in reaction. Scope: all listed entries.

As a guide, the following entries are already answered.
{"MOLECULE": "Nc1c(/N=N/c2ccc(-c3ccc(/N=N/c4cc(S(=O)(=O)[O-])c5ccccc5c4N)cc3)cc2)cc(S(=O)(=O)[O-])c2ccccc12.[Na+].[Na+] [Congo Red]", "Optimal pH in reaction": 4}
{"MOLECULE": "Cc1cc2nc3c(=O)[nH]c(=O)nc-3n(C[C@H](O)[C@H](O)[C@H](O)CO)c2cc1C [Riboflavin]", "Optimal pH in reaction": 10}
{"MOLECULE": "COc1cccc2c1C(=O)c1c(O)c3c(c(O)c1C2=O)C[C@@](O)(C(=O)CO)C[C@@H]3OC1CC(N)C(O)C(C)O1 (stereo partly shown) [DOX, Doxorubicin hydrochloride]", "Optimal pH in reaction": 9}
{"MOLECULE": "CC(C)(C)NCC(O)c1cc(O)cc(O)c1 (stereo not shown) [Terbutaline]", "Optimal pH in reaction": 10}
{"MOLECULE": "NC(N)=Nc1nc(CSCCC(N)=NS(N)(=O)=O)cs1 [Famotidine]", "Optimal pH in reaction": 6}

Name the recorded Optimal pH in reaction for NC(=O)c1cccnc1 [Nicotinamide] .
4

Name the recorded Optimal pH in reaction for CN(C)C(=N)NC(=N)N [Metformin] .
8

Name the recorded Optimal pH in reaction for Nc1cc(N2CCCCC2)nc(N)[n+]1[O-] [Minoxidil] .
6

Name the recorded Optimal pH in reaction for Cc1ncc(C[n+]2csc(CCO)c2C)c(N)n1 [Thiamine] .
6

Name the recorded Optimal pH in reaction for CN1CC(=O)NC1=N [Creatinine] .
4
